- SUBJECT OF TEST: Thromboxane-A synthase (Rattus norvegicus)
- PROTOCOL DESCRIPTION: Thromboxane synthase inhibitor (TxSI) activity assessed by ex vivo inhibition of serum TXB2 production in rat after Intravenous administration
- Format: functional, organism-based
RECORDED METRIC: ED50

Output measured ED50 for this item: CCOC(=O)CCCCO/N=C(/c1cccnc1)c1cccc(CN2CCc3c(sc4c3C(c3ccccc3Cl)=NCc3nnc(C)n3-4)C2)c1
0.1 mg/kg

* * *

- SUBJECT OF TEST: Thromboxane-A synthase (Rattus norvegicus) (UniProt P49430)
- Sequence (whole entry): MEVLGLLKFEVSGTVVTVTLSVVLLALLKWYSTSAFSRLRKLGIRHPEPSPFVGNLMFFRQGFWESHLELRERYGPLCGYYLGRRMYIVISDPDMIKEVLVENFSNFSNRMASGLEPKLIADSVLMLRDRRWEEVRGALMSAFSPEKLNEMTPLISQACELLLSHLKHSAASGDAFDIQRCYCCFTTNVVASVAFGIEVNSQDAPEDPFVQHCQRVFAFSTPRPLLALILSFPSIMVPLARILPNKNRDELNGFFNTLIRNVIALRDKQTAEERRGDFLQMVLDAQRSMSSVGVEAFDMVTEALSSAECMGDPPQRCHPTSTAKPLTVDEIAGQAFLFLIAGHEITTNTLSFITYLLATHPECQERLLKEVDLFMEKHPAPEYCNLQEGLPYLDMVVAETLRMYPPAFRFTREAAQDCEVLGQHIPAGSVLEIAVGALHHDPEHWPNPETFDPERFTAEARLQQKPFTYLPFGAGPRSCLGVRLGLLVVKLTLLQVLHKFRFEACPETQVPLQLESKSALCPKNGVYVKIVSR
- PROTOCOL DESCRIPTION: Thromboxane synthase inhibitor (TxSI) activity was assessed by ex vivo inhibition of serum TXB2 production in rat after oral administration
- Type: functional, organism-based
RECORDED METRIC: ED50 (mg/kg)
The figure you give is taken to be in mg/kg; do not add the unit.

Past entries and their recorded results:
{"columns": ["MOLECULE", "SUBJECT OF TEST", "UNIT OF MEASURE", "OBSERVED VALUE"],
 "data": [
  ["CCOC(=O)CCCCO/N=C(/c1cccnc1)c1cccc(CCCCN2CCc3c(sc4c3C(c3ccccc3Cl)=NC(C)c3nnc(C)n3-4)C2)c1 (configuration not stated)", "Thromboxane-A synthase (Rattus norvegicus) (UniProt P49430)", "mg/kg", 6.9],
  ["CCOC(=O)CCCC/C=C(\\c1ccc(CN2CCc3c(sc4c3C(c3ccccc3Cl)=NC(C)c3nnc(C)n3-4)C2)cc1)c1cccnc1 (configuration not stated)", "Thromboxane-A synthase (Rattus norvegicus) (UniProt P49430)", "mg/kg", 5.2],
  ["Cc1nnc2n1-c1sc3c(c1C(c1ccccc1Cl)=NC2C)CCN(Cc1cccc(/C(=N\\OCCCCC(=O)OCCN2CCOCC2)c2cccnc2)c1)C3 (configuration not stated)", "Thromboxane-A synthase (Rattus norvegicus) (UniProt P49430)", "mg/kg", 8.9]
]}

Output measured ED50 for this item: O=C(O)/C=C/c1ccc(Cn2ccnc2)cc1
0.1
